- tested_target: UniProtKB P06276
- Sequence (P06276 whole entry): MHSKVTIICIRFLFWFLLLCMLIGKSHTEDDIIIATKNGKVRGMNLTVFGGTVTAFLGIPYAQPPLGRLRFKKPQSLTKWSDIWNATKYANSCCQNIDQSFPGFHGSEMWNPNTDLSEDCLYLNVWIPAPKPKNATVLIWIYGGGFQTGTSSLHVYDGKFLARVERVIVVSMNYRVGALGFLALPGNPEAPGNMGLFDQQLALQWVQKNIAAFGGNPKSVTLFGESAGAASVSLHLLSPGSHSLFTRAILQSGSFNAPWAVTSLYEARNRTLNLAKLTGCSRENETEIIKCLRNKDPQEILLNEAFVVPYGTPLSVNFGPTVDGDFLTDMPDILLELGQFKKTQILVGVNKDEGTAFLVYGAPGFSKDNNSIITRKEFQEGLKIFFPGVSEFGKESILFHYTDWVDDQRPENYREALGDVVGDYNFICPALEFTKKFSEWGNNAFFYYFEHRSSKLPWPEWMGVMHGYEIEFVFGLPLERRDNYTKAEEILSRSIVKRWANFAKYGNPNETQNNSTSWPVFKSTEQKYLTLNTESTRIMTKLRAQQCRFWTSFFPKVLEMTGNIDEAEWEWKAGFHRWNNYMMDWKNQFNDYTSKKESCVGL
- assay_notes: Inhibition of human plasma BChE at <10000 uM after 20 mins by Ellman's method
- Format: cell-free
Active and inactive are the calls of the source. The rule behind the calls is not given here.
property_name: Activity

Some solved cases for reference:
• CCCN1c2ccccc2C2(CCC)CCN(C)C12 (stereo unspecified) = inactive
• CN1CCC2(Cc3ccncc3)c3ccccc3N(Cc3ccccc3)C12 (stereo unspecified) = inactive
• CN1CCC2(C)c3ccccc3N(C)C12 (stereo unspecified) = inactive
• CC(C)CCN1c2ccccc2C2(CCC(C)C)CCN(C)C12 (stereo unspecified) = inactive
• CCN1c2ccccc2C2(CC)CCN(C)C12 (stereo unspecified) = inactive

Exercise: Quick check: Activity of CC(C)=CCN1c2ccccc2[C@]2(CC=C(C)C)CCN(C)[C@H]12 [(-)-DEBROMOFLUSTRAMINE B] ?
Key: inactive

Exercise: Follow-up item: COc1ccc2c(c1)C1(CC=C(C)C)CCN(Cc3ccccc3)C1N2Cc1ccccc1 (stereo unspecified)
Key: inactive

Exercise: Again, but for CC(C)=CCC12CCN(C)C1N(C)c1ccccc12 (stereo unspecified)
Key: inactive

Reference for the values: ChEMBL document CHEMBL1157353
